experiment: small-molecule binders of probe aNOTCH3, primary screen, biochemical, small-molecule microarray, 635/667 nm fluorescence (AID 1120); conditions: higher = more signal;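 also: probe is a biotin-tagged antibody raised against NOTCH3 rather than NOTCH3 protein; score merges spot fluorescence near 667 nm with spot signal to noise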
MEASURE: composite z-score

- COMPOUND: "C=CCOC(=O)[C@H]1[C@@H]2C(=O)O[C@@H](c3ccccc3)[C@@H](c3ccccc3)N2[C@@H](c2ccc(OCCOC(=O)[C@@H]3C[C@@H]4C(=O)N[C@@H](Cc5ccccc5)C(=O)N4[C@@H]3c3ccc(O)cc3)cc2)[C@]12C(=O)Nc1ccccc12"
  MEASURE: "composite z-score"
  OBS VALUE: 0.0382
- COMPOUND: "CC#CCO[Si](C#CCCCCCC)(C(C)C)C(C)C"
  MEASURE: "composite z-score"
  OBS VALUE: -0.597

// query Using known records, supply composite z-score for CCC(CC)C(O)C1C=CC2C(=O)N(C)C(=O)C2N1N1CCCCC1 (stereo not drawn)
// result 0.499

---

molecular target: Fibroblast growth factor 10 (Homo sapiens) (UniProt O15520); experiment: FGF10 binders on small-molecule microarrays, primary screen, biochemical, small-molecule microarray, 635 nm fluorescence (AID 1102); conditions: FGF10 binding, fluorescence 635 nm, higher = more signal
Sequence (O15520 whole entry, looked up): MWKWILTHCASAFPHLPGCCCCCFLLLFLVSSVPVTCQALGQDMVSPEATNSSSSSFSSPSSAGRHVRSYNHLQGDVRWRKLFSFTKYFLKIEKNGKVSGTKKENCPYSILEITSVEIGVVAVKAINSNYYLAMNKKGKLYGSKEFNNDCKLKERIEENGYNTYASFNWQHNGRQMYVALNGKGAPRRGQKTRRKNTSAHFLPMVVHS
What composite z-score was measured for each of the following?
One number for each entry.

Known results for molecules:
- MOLECULE: "C=CC[C@]1(C(=O)OC)N=C(c2ccc(OCCCO)cc2)O[C@H]1c1ccccc1N=[N+]=[N-]"
  OBS VALUE: 1.25
- MOLECULE: "C=CCC(OC(C)=O)[C@@H]1[C@@H](N(Cc2cc3ccccc3o2)C(=O)Cc2ccc(OC)cc2)c2cc(OCCCO)ccc2N1C(=O)Cc1ccc2ccccc2c1 (some centres not stated)"
  OBS VALUE: -0.448

Provide reported composite z-score for each item, in the same order as listed.
1. COCCCN1C(=O)[C@@]2(Cc3ccccc31)c1ccccc1C(=O)N(Cc1ccccc1OC)[C@H]2c1ccc(CO)cc1
2. C=CCC(OC(C)=O)[C@@H]1[C@@H](N(Cc2ccc(-c3ccccc3)cc2)C(=O)c2cccc3ccccc23)c2cc(OCCCO)ccc2N1C(=O)c1ccc2ccccc2c1 (some centres not stated)

// result
1: -0.426; 2: 0.256

Provide reported composite z-score for each item, in the same order as listed.
1. C=CC[C@@]12N=C(c3ccc(OCCCO)cc3)O[C@@H]1c1ccccc1N(Cc1ccccc1)C2=O
2. COCCOC(=O)N1C(=O)[C@@]2(c3cc(C#CC4(O)CCCCCC4)ccc31)[C@H](c1ccc(OCCO)cc1)N1[C@H](c3ccccc3)[C@H](c3ccccc3)OC(=O)[C@H]1[C@@H]2C(=O)N1CCCCCCC1
3. C=CCNC(=O)[C@@H]1[C@H]2C(=O)O[C@H](c3ccccc3)[C@H](c3ccccc3)N2[C@H](c2ccc(O)cc2)[C@@]12C(=O)Nc1ccc(C#CC3(O)CCCCCC3)cc12

// result
1: 1.26; 2: 1.35; 3: 0.746

---

assay: E. coli acrAB mutant growth effects, primary screen, E. coli filamentation inducers, strain DRC39, OD650, 24 h (AID 1178); settings: higher = more signal, called active from +8 up or from −8 down;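 also: growth measured as culture turbidity by optical density at 650 nm; test concentration not given here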
Binary call on z-score: yes from -0.2 upward, no beneath that.

- COMPOUND: "COc1ccc(CCNC(=O)[C@@H]2c3ccccc3C(=O)N(CC34CC5CC(CC(C5)C3)C4)[C@H]2c2ccc(CO)cc2)cc1"
  GROUP: "yes"

// query Hi, just wondering whether NC(=O)[C@@]1(CCS(=O)(=O)c2ccccc2)COC(c2ccc(OCCCO)cc2)=N1 shows z-score of -0.2 or higher.
// result no

// query Hi, just wondering whether COC(=O)[C@@H]1N=C(c2ccc(OCCCO)cc2)O[C@@H]1c1ccccc1CN=[N+]=[N-] shows z-score of -0.2 or higher.
// result yes

// query Hi, just wondering whether CCC[C@@H]1C=C(C(=O)OCC)[C@H](c2ccccc2)N1S(=O)(=O)c1ccc(C)cc1 shows z-score of -0.2 or higher.
// result no

// query Hi, just wondering whether COC(=O)C(CC#Cc1ccc2c(c1)[C@]1(C(=O)N2)[C@H](c2ccc(O)cc2)N2[C@H](c3ccccc3)[C@H](c3ccccc3)OC(=O)[C@H]2[C@@H]1C(=O)N1CCc2cc(OC)c(OC)cc2C1)C(=O)OC shows z-score of -0.2 or higher.
// result yes

// query Hi, just wondering whether NC(=O)N1C(=O)C2C(C1=O)C1C=C(CCCO)C2C(c2ccc(CN3CCCC3)cc2)N1Cc1cccc(OC(F)(F)F)c1 (stereo not given) shows z-score of -0.2 or higher.
// result no

// query Hi, just wondering whether COC(=O)[C@@]1(Cc2ccccc2CN=[N+]=[N-])COC(c2ccc(OCCCO)cc2)=N1 shows z-score of -0.2 or higher.
// result yes

// query Hi, just wondering whether COc1ccc(CCNC(=O)[C@@]2(C)c3ccccc3C(=O)N(Cc3cc(C(F)(F)F)cc(C(F)(F)F)c3)[C@H]2c2ccc(CO)cc2)cc1 shows z-score of -0.2 or higher.
// result yes

// query Hi, just wondering whether COC(=O)c1ccc([C@H](NC(=O)c2ccccc2)[C@]2(C)C[C@H]2C2CCCCC2)cc1 shows z-score of -0.2 or higher.
// result no

// query Hi, just wondering whether Cc1ccc(F)cc1S(=O)(=O)N[C@@H]1CCN(Cc2ccc3c(c2)OCO3)C1 shows z-score of -0.2 or higher.
// result no

// query Hi, just wondering whether Cc1ccccc1C(O)C1C=CC2C(=O)N(c3ccccc3)C(=O)C2N1Nc1ccccc1F (stereo not given) shows z-score of -0.2 or higher.
// result no

// query Hi, just wondering whether C=CCN1C(=O)[C@]2(O[C@H](CCn3cc([C@H](O)c4ccccc4)nn3)[C@@H]([Si](C)(C)c3ccc(OC)cc3)[C@@H]2C)c2cc(N3C(=O)c4cccc5cccc3c45)ccc21 shows z-score of -0.2 or higher.
// result yes

// query Hi, just wondering whether COCCOC(=O)N1C(=O)[C@@]2(c3cc(C#CCC(C(=O)OC)C(=O)OC)ccc31)[C@H](c1ccc(OCCO)cc1)N1[C@H](c3ccccc3)[C@H](c3ccccc3)OC(=O)[C@H]1[C@@H]2C(=O)N1CCCCCCC1 shows z-score of -0.2 or higher.
// result no

// query Hi, just wondering whether COc1cc2c(cc1O)C(c1ccc(CN3CCCC3)cc1)N(Cc1cccc(OC(F)(F)F)c1)CC2 (stereo not given) shows z-score of -0.2 or higher.
// result no

// query Hi, just wondering whether CC(C)C[C@@H]1NC(=O)[C@@H]2C[C@H](C(=O)O)[C@H](c3ccc(O)cc3)N2C1=O shows z-score of -0.2 or higher.
// result yes

---

test: basal S. cerevisiae growth modulation, no modifier, primary screen, OD600, strain BY4716, 24 h, basal condition (AID 1173); settings: OD600, 24 h, higher = more signal, called active from +8 up or from −8 down
MEASURE: z-score
Give bare numbers.

Known results for molecules:
- MOLECULE: "CN1C=C(C(=O)OCCS(C)(=O)=O)C(C(=O)OCCS(C)(=O)=O)=CC(CCCO)=CC1c1ccc(CN2CCCC2)cc1 (centres undefined)"
  z-score: -2.02
- MOLECULE: "CN(C)CCCCNC(=O)[C@H]1C[C@H]2C(=O)N[C@@H](Cc3ccccc3)C(=O)N2[C@H]1c1cccc(OCCO)c1"
  z-score: -0.456
- MOLECULE: "CCOC(=O)C1=C[C@@H](C(C)(C)C)N(S(=O)(=O)c2ccc(C)cc2)[C@H]1c1ccccc1Cl"
  z-score: 1.51

Shift focus to the following entry.
// query Using known records, supply z-score for NCCCC[C@@H]1NC(=O)[C@H]2C[C@@H](C(=O)NCc3ccc(F)cc3)[C@@H](c3ccc(O)cc3)N2C1=O
// result 1.15

---

What composite z-score was measured for each of the following?
target: Torsin-1A (Homo sapiens); test: small-molecule binders of mutant TOR1A in lysate, primary screen, cell lysate, small-molecule microarray, COS7 lysate, 635/667 nm fluorescence (AID 1150); details: COS7 hTOR1A mutant lysate, 635 nm fluorescence, higher = more signal;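 also: score pools 667 nm emission and signal to noise measuring lysate protein binding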

- COMPOUND: "COC(=O)[C@@]1(Cc2ccc(F)cc2)[C@H]2c3cc(C(=O)N(C)C)n(CCO)c3C[C@H]2CN1C(=O)c1ccccc1"
  MEASURE: "composite z-score"
  OBS VALUE: 0.297
- COMPOUND: "COC(=O)C1=CC(CCCO)=CC(c2ccc(CN3CCCC3)cc2)N(Cc2sc3ccccc3c2Cl)C=C1C(=O)OC (stereo not drawn)"
  MEASURE: "composite z-score"
  OBS VALUE: 1.88
- COMPOUND: "CC(C)C[C@@H]1NC(=O)C([C@@H](C)OCc2ccccc2)NC(=O)[C@@]23C(=O)N[C@@H](Cc4ccccc4)C2[C@H](C)[C@@]2(C)O[C@H]2C3/C=C/CC/C=C/CNC1=O (stereo partly drawn)"
  MEASURE: "composite z-score"
  OBS VALUE: 0.32
- COMPOUND: "O=C1O[C@@H](c2ccccc2)[C@@H](c2ccccc2)N2[C@@H](c3ccc(OCCO)cc3)[C@]3(C(=O)Nc4ccc(C#CCCO)cc43)[C@@H](C(=O)Nc3nc4ccccc4s3)[C@H]12"
  MEASURE: "composite z-score"
  OBS VALUE: 0.79
- COMPOUND: "COc1ccc([Si](C)(C)[C@@H]2[C@@H](CCO)O[C@]3(C(=O)N(Cc4ccccc4)c4ccc(N5C(=O)c6ccccc6Oc6ccccc65)cc43)[C@H]2C)cc1"
  MEASURE: "composite z-score"
  OBS VALUE: -0.32
- COMPOUND: "C=CCC(OC(C)=O)[C@@H]1[C@@H](N(Cc2cc3ccccc3o2)C(=O)c2ccc(-c3ccccc3)cc2)c2cc(OCCCO)ccc2N1C(=O)c1ccc2ccccc2n1 (stereo partly drawn)"
  MEASURE: "composite z-score"
  OBS VALUE: 0.165

Provide reported composite z-score for each item, in the same order as listed.
1. C=CC(CO)NC(=O)OCC1c2ccccc2-c2ccccc21 (stereo not drawn)
2. C#CCN=C(N)N

// result
[0.724, 0.832]
